target: Inhibitor of nuclear factor kappa-B kinase subunit beta (Homo sapiens, UniProt O14920); assay: Allosteric inhibition of IKKbeta (unknown origin) using 5FAM-GRHDSGLDSMK-NH2 as substrate incubated for 10 mins followed by substrate addition and measured after 60 mins by TR-FRET assay
# Lookup of reported IC50 keyed by entry
Report the figure along with its unit, number first.

# chem-smiles, IC50
data = [
    ("CN1CCN(CCCCCOc2cccc(N3C(=O)S/C(=C\\c4ccc(Oc5ccc([N+](=O)[O-])cc5)cc4)C3=O)c2)CC1", "219 nM"),
]

In the following, a different molecule is considered.
Q: Answer with reported IC50 of CN1CCN(CCCOc2ccc(N3C(=O)S/C(=C\c4ccc(Oc5ccc(C#N)cc5)cc4)C3=O)cc2)CC1
Result: 204 nM

====

assay: Metabolic stability in human liver microsomes assessed as half life at 1 uM measured upto 1 hrs by LC-MS/MS analysis; assay type: ADME, Microsome
measurement-kind: half-life at 1 µM (min)
Just the number please, in min, no unit attached.

# chem-smiles, measurement-kind, measurement
measured = [
    ("CN1CCN(CCCCCOc2cccc(N3C(=O)S/C(=C\\c4ccc(Oc5ccc([N+](=O)[O-])cc5)cc4)C3=O)c2)CC1", "half-life at 1 µM", 60),
]

In the following, a different molecule is considered.
Q: Answer with reported half-life at 1 µM of CN1CCN(CCCOc2ccc(N3C(=O)S/C(=C\c4ccc(Oc5ccc(C#N)cc5)cc4)C3=O)cc2)CC1
Result: 20

====

# Lookup of reported IC50 keyed by entry
target: Inhibitor of nuclear factor kappa-B kinase subunit beta (Homo sapiens); experiment: Allosteric inhibition of IKKbeta (unknown origin) using 5FAM-GRHDSGLDSMK-NH2 as substrate incubated for 10 mins followed by substrate addition and measured after 40 mins by TR-FRET assay
Just the number please, in nM, no unit attached.

# chem-smiles, IC50, nM
data = [
    ("CN1CCN(CCCOc2ccc(N3C(=O)S/C(=C\\c4ccc(Oc5ccc(C#N)cc5)cc4)C3=O)cc2)CC1", 251),
]

Q: Answer with reported IC50 of CN1CCN(CCCCCOc2cccc(N3C(=O)S/C(=C\c4ccc(Oc5ccc([N+](=O)[O-])cc5)cc4)C3=O)c2)CC1
Result: 219

====

# Lookup of reported remaining at 2 h, 1 µM keyed by entry
assay: Metabolic stability in rat plasma assessed as parent compound remaining at 1 uM measured upto 2 hrs by LC-MS/MS analysis; assay type: ADME, cell-free; settings: read-out: Stabilty
Just the number please, in %, no unit attached.

# chem-smiles, measurement-kind, display-unit, measurement
measured = [
    ("CN1CCN(CCCOc2ccc(N3C(=O)S/C(=C\\c4ccc(Oc5ccc(C#N)cc5)cc4)C3=O)cc2)CC1", "remaining at 2 h, 1 µM", "%", 73.6),
]

In the following, a different compound is considered.
Q: Answer with reported remaining at 2 h, 1 µM of CN1CCN(CCCCCOc2cccc(N3C(=O)S/C(=C\c4ccc(Oc5ccc([N+](=O)[O-])cc5)cc4)C3=O)c2)CC1
Result: 83.3

====

assay: Cytotoxicity against non-stimulated mouse RAW264.7 cells upto 10 uM after 24 hrs by MTT assay; conditions: raw264.7, 24 h
measurement-kind: Activity

# chem-smiles, measurement-kind, measurement
data = [
    ("CN1CCN(CCCOc2ccc(N3C(=O)S/C(=C\\c4ccc(Oc5ccc(C#N)cc5)cc4)C3=O)cc2)CC1", "Activity", "Non-Toxic"),
    ("CN1CCN(CCCCCOc2cccc(N3C(=O)S/C(=C\\c4ccc(Oc5ccc(F)cc5)cc4)C3=O)c2)CC1", "Activity", "Non-Toxic"),
    ("CN1CCN(CCCCCOc2cccc(N3C(=O)S/C(=C\\c4ccc(Oc5ccc(Cl)cc5)cc4)C3=O)c2)CC1", "Activity", "Non-Toxic"),
    ("CN1CCN(CCCCCOc2cccc(N3C(=O)S/C(=C\\c4ccc(Oc5ccc([N+](=O)[O-])cc5)cc4)C3=O)c2)CC1", "Activity", "Non-Toxic"),
]

====

biological target: Inhibitor of nuclear factor kappa-B kinase subunit beta (Homo sapiens, UniProt O14920); assay: Allosteric inhibition of IKKbeta (unknown origin) using 5FAM-GRHDSGLDSMK-NH2 as substrate incubated for 10 mins followed by substrate addition and measured immediately by TR-FRET assay
# Lookup of reported pIC50 keyed by entry
pIC50 is defined as minus the log10 of a concentration measured in mol/L.

# chem-smiles, pIC50
measured = [
    ("CN1CCN(CCCCCOc2cccc(N3C(=O)S/C(=C\\c4ccc(Oc5ccc([N+](=O)[O-])cc5)cc4)C3=O)c2)CC1", 6.46),
]

In the following, a different molecule is considered.
Q: Answer with reported pIC50 of CN1CCN(CCCOc2ccc(N3C(=O)S/C(=C\c4ccc(Oc5ccc(C#N)cc5)cc4)C3=O)cc2)CC1
Result: 6.24

====

# Lookup of reported IC50 keyed by entry
Biological target: Inhibitor of nuclear factor kappa-B kinase subunit beta (Homo sapiens)
Sequence (O14920 whole entry): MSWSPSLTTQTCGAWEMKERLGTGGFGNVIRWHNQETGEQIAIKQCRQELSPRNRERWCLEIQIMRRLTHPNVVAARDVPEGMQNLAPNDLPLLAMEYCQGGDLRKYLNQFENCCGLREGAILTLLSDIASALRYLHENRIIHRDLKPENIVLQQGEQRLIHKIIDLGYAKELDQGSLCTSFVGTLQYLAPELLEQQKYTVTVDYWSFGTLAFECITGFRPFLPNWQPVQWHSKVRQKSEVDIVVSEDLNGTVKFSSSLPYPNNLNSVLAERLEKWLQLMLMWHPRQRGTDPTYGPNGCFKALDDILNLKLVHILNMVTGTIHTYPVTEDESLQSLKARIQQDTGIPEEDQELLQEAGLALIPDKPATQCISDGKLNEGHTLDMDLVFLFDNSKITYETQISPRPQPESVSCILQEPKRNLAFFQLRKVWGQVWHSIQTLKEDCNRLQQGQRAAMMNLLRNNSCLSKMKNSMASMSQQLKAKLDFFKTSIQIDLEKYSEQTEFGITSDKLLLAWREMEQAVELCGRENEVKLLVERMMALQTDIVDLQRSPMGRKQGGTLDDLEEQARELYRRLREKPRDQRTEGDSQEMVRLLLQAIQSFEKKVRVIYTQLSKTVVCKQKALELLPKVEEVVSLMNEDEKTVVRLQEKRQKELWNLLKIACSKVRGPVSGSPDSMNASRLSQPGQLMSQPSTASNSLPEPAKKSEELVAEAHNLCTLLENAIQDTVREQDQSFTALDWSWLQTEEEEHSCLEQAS
Test: Allosteric inhibition of IKKbeta (unknown origin) using 5FAM-GRHDSGLDSMK-NH2 as substrate pretreated for 10 mins followed measured after 2 hrs by TR-FRET assay
Just the number please, in µM, no unit attached.

Example results:
# chem-smiles, measurement-kind, display-unit, measurement
rows = [
    ("CN1CCN(CCCCCOc2ccc(N3C(=O)S/C(=C\\c4ccc(Oc5ccc(Cl)cc5)cc4)C3=O)cc2)CC1", "IC50", "µM", 0.7),
    ("Cc1ccc(Oc2ccc(/C=C3\\SC(=O)N(c4cccc(OCCCCCN5CCN(C)CC5)c4)C3=O)cc2)cc1", "IC50", "µM", 2.73),
    ("CC(=O)Nc1ccc(Oc2ccc(/C=C3\\SC(=O)N(c4ccc(OCCCCCN5CCN(C)CC5)cc4)C3=O)cc2)cc1", "IC50", "µM", 1.71),
    ("COc1ccc(Oc2ccc(/C=C3\\SC(=O)N(c4ccc(OCCCCCN5CCN(C)CC5)cc4)C3=O)cc2)cc1", "IC50", "µM", 0.7),
    ("CN1CCN(CCCOc2ccc(N3C(=O)S/C(=C\\c4ccc(Oc5ccc(F)cc5)cc4)C3=O)cc2)CC1", "IC50", "µM", 0.67),
    ("CN1CCN(CCCCCOc2cccc(N3C(=O)S/C(=C\\c4ccc(Oc5ccc([N+](=O)[O-])cc5)cc4)C3=O)c2)CC1", "IC50", "µM", 0.22),
    ("CN1CCN(CCCCCOc2ccc(N3C(=O)S/C(=C\\c4ccc(Oc5ccc(N)cc5)cc4)C3=O)cc2)CC1", "IC50", "µM", 2.61),
]

In the following, a different compound is considered.
Q: Answer with reported IC50 of CN1CCN(CCCCCOc2ccc(N3C(=O)S/C(=C\c4ccc(Oc5ccc(F)cc5)cc4)C3=O)cc2)CC1
Result: 0.6

====

target: Inhibitor of nuclear factor kappa-B kinase subunit beta (Homo sapiens, UniProt O14920); experiment: Allosteric inhibition of IKKbeta (unknown origin) using 5FAM-GRHDSGLDSMK-NH2 as substrate pretreated for 10 mins followed measured after 2 hrs by TR-FRET assay
Friendly reminder: IC50 below 3000 nM is true, at or above is false.

# chem-smiles, assayed-system, label
data = [
    ("CN1CCN(CCCCCOc2cccc(N3C(=O)S/C(=C\\c4ccc(Oc5ccc(C#N)cc5)cc4)C3=O)c2)CC1", "Inhibitor of nuclear factor kappa-B kinase subunit beta (Homo sapiens, UniProt O14920)", "true"),
    ("CN1CCN(CCCCCOc2cccc(N3C(=O)S/C(=C\\c4ccc(Oc5ccc(Br)cc5)cc4)C3=O)c2)CC1", "Inhibitor of nuclear factor kappa-B kinase subunit beta (Homo sapiens, UniProt O14920)", "true"),
    ("COc1ccc(Oc2ccc(/C=C3\\SC(=O)N(c4cccc(OCCCCCN5CCN(C)CC5)c4)C3=O)cc2)cc1", "Inhibitor of nuclear factor kappa-B kinase subunit beta (Homo sapiens, UniProt O14920)", "true"),
]

Q: Consider the compound Cc1ccc(Oc2ccc(/C=C3\SC(=O)N(c4ccc(OCCCCCN5CCN(C)CC5)cc4)C3=O)cc2)cc1 . Is its IC50 strictly less than 3000 nM?
Result: true

Q: Consider the compound CN1CCN(CCCCCOc2ccc(N3C(=O)S/C(=C\c4ccc(Oc5ccc(Br)cc5)cc4)C3=O)cc2)CC1 . Is its IC50 strictly less than 3000 nM?
Result: true

Q: Consider the compound CN1CCN(CCCCCOc2cccc(N3C(=O)S/C(=C\c4ccc(Oc5ccc(F)cc5)cc4)C3=O)c2)CC1 . Is its IC50 strictly less than 3000 nM?
Result: false

Q: Consider the compound CN1CCN(CCCOc2ccc(N3C(=O)S/C(=C\c4ccc(Oc5ccc(C#N)cc5)cc4)C3=O)cc2)CC1 . Is its IC50 strictly less than 3000 nM?
Result: true

Q: Consider the compound CN1CCN(CCCCCOc2cccc(N3C(=O)S/C(=C\c4ccc(Oc5ccc(N)cc5)cc4)C3=O)c2)CC1 . Is its IC50 strictly less than 3000 nM?
Result: false

Q: Consider the compound CN1CCN(CCCCCOc2cccc(N3C(=O)S/C(=C\c4ccc(Oc5ccc(Cl)cc5)cc4)C3=O)c2)CC1 . Is its IC50 strictly less than 3000 nM?
Result: true

Every entry's value here was drawn from ChEMBL document CHEMBL4680142.
